Provenance of the data: patent US9409952B2

assay: Metabolic stability in mouse hepatic microsome
Type: in vitro ADME
study.conditions: male, liver microsomes, pH 7.4; Table 8, mouse; read-out: Hepatic Microsome CLhint Mouse
Starred links: 1 amine or outer side, 2 acyl side, 3 side chain; linkers in the order of their positions; H or OH if unused. Positions of bridges follow the written chain, without caps; N, C: chain ends. Non-standard residues stand in square brackets, D forms with d. Residues, ends and D or L forms follow the SMILES beside them. *: point of attachment. Cys(O)(CH2CO) = O=C([C@H](C[S+]([O-])CC(=O)[*:3])N[*:1])[*:2]; NMeF = CN[C@@H](Cc1ccccc1)C(=O)O; NMeI = CC[C@H](C)[C@H](NC)C(=O)O; NMeL = CN[C@@H](CC(C)C)C(=O)O; NMeA = CN[C@@H](C)C(=O)O; Piperidide = C1CCN(*)CC1; Sar = CNCC(=O)O; tBu = CC(C)(C)*
measured.metric: microsomal CLint at 1 uM (µL/min/mg)
Numbers only; they are read as µL/min/mg.

So, CC[C@H](C)[C@H]1C(=O)N[C@H](C(=O)N2CCCCC2)C[S+]([O-])CC(=O)N(C)[C@@H](C)C(=O)N(C)[C@@H](Cc2ccccc2)C(=O)N(C)[C@@H](CC(C)C)C(=O)N[C@@H]([C@@H](C)O)C(=O)N(C)CC(=O)N(C)[C@@H](CC(C)C)C(=O)N[C@@H](COC(C)(C)C)C(=O)N1C (stereo partly shown) [Compound P-114] ([NMeA][NMeF][NMeL]T[Sar][NMeL]S(tBu)[NMeI][Cys(O)(CH2CO)]-Piperidide; lactam N-9) ? Its microsomal CLint at 1 uM was 33.7
